Values of pIC50 for human 20 S proteasome (Homo sapiens, UniProt P28074), collected from a number of published sources:
pIC50: −log10 of the molar value.

1. COc1ccc(CC(=O)N[C@@H](Cc2coc3c(C)cccc23)B(O)O)cc1    5.30 to 6.30
2. C[C@H](NC(=O)CN1CCOCC1)C(=O)N[C@@H](Cc1c[nH]c2ccccc12)C(=O)N[C@@H](CC1CCCC1)C(=O)[C@@]1(C)CO1    6.09
3. O=C(N[C@@H](Cc1ccsc1)B(O)O)[C@H]1CCC[C@@H]1C(=O)c1ccccc1 (racemic)    < 5.30
4. O=C(N[C@@H](CC1CCC1)B(O)O)[C@H](Cc1ccccc1)NS(=O)(=O)c1cc(Cl)ccc1Cl    > 7.30
5. Cc1ccc(C[C@H](NC(=O)CCOc2ccccc2)B(O)O)cc1    6.30 to 7.30

If you can, please state the reported pIC50 value of O=C(CCc1cn(-c2ccccc2)nn1)N[C@@H](Cc1ccsc1)B(O)O . 5.30 to 6.30

And C[C@H](NC(=O)CN1CCOCC1)C(=O)N[C@@H](Cc1ccc(O)c(O)c1)C(=O)N[C@@H](CC1CCCC1)C(=O)[C@@]1(C)CO1 ? 6.16

What would you report for COc1ccc(C[C@H](NC(=O)[C@@H](C)NC(=O)[C@@H]2CCCOC2)C(=O)N[C@@H](CC2CCCC2)C(=O)[C@@]2(C)CO2)cc1 ? 6.29

Another molecule to check: O=C(CCC(=O)c1ccccc1)N[C@@H](Cc1ccsc1)B(O)O 5.30 to 6.30

Could you do the same for COc1ccc([C@H](O)[C@H](NC(=O)[C@H](C)NC(=O)CN2CCOCC2)C(=O)N[C@@H](CC2CCCC2)C(=O)[C@@]2(C)CO2)cc1 , please? 5.73

// same read-out, input: CCc1cccc(C[C@H](NC(=O)CCn2cc(-c3ccccc3)nn2)B(O)O)c1 6.30 to 7.30

Now this one: Cc1ccc(C[C@H](NC(=O)[C@@H](O)c2ccccc2)B(O)O)cc1 < 5.30

Moving on to the next molecule: COc1ccc(C[C@H](NC(=O)[C@H](C)NC(=O)CN2CCOCC2)C(=O)N[C@@H](C[C@H]2CCC(F)(F)C2)C(=O)[C@@]2(C)CO2)cc1 4.60

Can you check COc1ccc(CC(=O)N[C@H](Cc2coc3c(C)cccc23)B(O)O)cc1 next? < 5.30

Check CCc1cccc(C[C@H](NC(=O)CCn2ncc3ccccc32)B(O)O)c1 too. 5.30 to 6.30

----------
Below are IC50 measurements against human 20 S proteasome (Homo sapiens) drawn from the literature.

These solved cases illustrate the format of a correct answer.
1. COc1ccc(OC)c(CC(=O)N[C@@H](Cc2coc3c(C)cccc23)B(O)O)c1    0.5 to 5 µM
2. CC1(C)[C@@H]2C[C@H]3OB([C@H](CC4CCC4)NC(=O)[C@H](Cc4ccccc4)NC(=O)c4ccc(O)c(CN5CCOCC5)c4)O[C@@]3(C)[C@H]1C2    0.05 to 0.15 µM
3. O=C(CCn1cc(-c2ccccc2)nn1)N[C@@H](Cc1csc2ccccc12)B(O)O    < 0.05 µM
4. COc1cccc(CC(=O)N[C@@H](Cc2coc3ccccc23)B(O)O)c1    0.05 to 0.5 µM
5. O=C(CCn1cnc2ccccc21)N[C@@H](Cc1ccc(F)c(C(F)(F)F)c1)B(O)O    0.05 to 0.5 µM
6. C[C@H](NC(=O)CN1CCOCC1)C(=O)N[C@@H](Cc1ccc2occc2c1)C(=O)N[C@@H](CC1CCCC1)C(=O)[C@@]1(C)CO1    0.44 µM

Below: the item to evaluate.
Form field - read-out: IC50; system: human 20 S proteasome (Homo sapiens); submitted item: COc1ccc(C[C@H](NC(=O)[C@H](C)NC(=O)CN2CCOCC2)C(=O)N[C@@H](CC2CCCC2)C(=O)[C@@]2(C)CO2)cc1O 0.656 µM
